Value source: the supplement of paper PMC6555819

system: VDR homodimer (NR concentration 270 nM); assay: PBM binding z-score (relative to random genomic background probes); higher = stronger binding; sequences stand for … in GC…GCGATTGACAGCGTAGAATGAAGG
Returns one of Fulfilled or Not fulfilled; Fulfilled when PBM binding z-score is >= 0.9.

> print(dat)
                                   seq     class.name
 1  ACTATTAGTTGACTTGGGGCAACCGATACGACGC  Not fulfilled
 2  CAAACTAGGTCAGGAAAGGTCAAAGTCGAATGAC      Fulfilled
 3  CAAACTAGGCCACGAAAGGTCAAAGTCGAATGAC      Fulfilled
 4  CCTTACGGGTCACTCCAGGTTGTAGCATCGGAGT      Fulfilled
 5  ATATGTAGGTTAAGGGTCACTCAGGTTGGTTCGC      Fulfilled
 6  CGTCCAGGGTCAGAGAGGTCAGTGAATGCCGAGT      Fulfilled
 7  CGTCCTAGGTCAAAGGTCAGTGAAGAGATGACGG      Fulfilled
 8  CGAACTAAGTCAAGGACAGTGAATCTCCGCACGC  Not fulfilled
 9  TCATATAGGTAATACAGGTGAAGGTCGGCATCTA  Not fulfilled
10  TTACCAAGGTGAAAGGTCGTCGATGCACGCCTTG  Not fulfilled
11  TCTTGTAGATCAGCAGATTAAGAAAGCTGGCCAA  Not fulfilled
12  GCTAGTTGGTCAGTAAAAGCTCACACACCGGTCG  Not fulfilled
13  TAGCCTAGGTCATCCGGGCCAGTATAGTGTCGGC      Fulfilled
14  ATCTCTAGGTAACAAGTTCAGTGATAGAGAGGAC      Fulfilled
15  ATATGTAGGTTACATCCGGGTCATTCGGGCTATG      Fulfilled
16  TCTATTAGTTGAAGGTCAACCGACGAGTCCGTTT      Fulfilled
17  GGAACGAGGGCATTCGAGTTGATAGCGTGGCGAT      Fulfilled
18  ACTAGTTGATCAGCTGAGGTCACACACAATTCGG      Fulfilled
19  TCTTGTAGATAAGCAGGTTAAGAAAGCTGGCCAA  Not fulfilled
20  CCGACTGGGGCAAGGTTACCCTAACGCACAGCCA  Not fulfilled
21  ATCTCTAGGTAAGACTCAGTTCAGTGGAGAACGC      Fulfilled
22  GCTCGGAGGACAAGGTCAGAGCATTGTCCGTAGA  Not fulfilled
23  CCGACTGGGGCAGAACGGTTACCATACCATCCGG  Not fulfilled
24  GTACCAAGATGAATAGGTCGTTGATGAGTAGGCG  Not fulfilled
25  CAAACTAGGTCACGAAAGATCAAAGTCGAATGAC  Not fulfilled
26  TCTTGTAGATCAATAGTGGTTAAGAAAGTGCGCT  Not fulfilled
27  TGAATGAGGTTAAAGATCTGGGAACGTGGCGTCG  Not fulfilled
28  CCTAGCAGGCCAGGGGCACTCAAGCATTTCGCTT  Not fulfilled
29  CCTACTGGGCCACGAAAAGTCATTGATTCAGTGA  Not fulfilled
30  CGTCAAAGTTCAACTAAGGTAACGAAAAGCACGC      Fulfilled
31  AGAATGAGGTTACCAAAGATCAGCGAAACGCTTG  Not fulfilled
32  GCTGTTAGGTCAGGTTGGTCAGCTAACGGGTACG  Not fulfilled
33  ATCGAAGGGTCGACGAGGTGAGTATACACCGTTT  Not fulfilled
34  AGAACGAGGGCAACGAGTTGATAGCACGGGTGGC      Fulfilled
35  CCAGACAGCTGAAAGGTAACTCAGTCTGGTACGC  Not fulfilled
36  TGTCAAAGTTCAAAGGCAACGTAAGTATCCACAC      Fulfilled
37  AATACAGGGTCATCGTCGGCCAGAGTACGCACAG      Fulfilled
38  ATCTCTACGTAAGACTCAGTTCAGTGAAGAACGC      Fulfilled
39  CTTCCAAGGTCAAGGTCAGTGAAAGAGACTCGAA      Fulfilled
40  ACTATTAGTTGAGAAGAGGGCAACCGATAGGTTG  Not fulfilled
41  ATAGAAAGGTCGAGGTGAGTATAGAGAAAGGGAA  Not fulfilled
42  TCATATAGGTGAATGCTAGGTGAAAGTCCGATCT  Not fulfilled
43  TCTAGTTGGTCACGGAGGTCACACCCGACGGGTA      Fulfilled
44  ACTATTAGTTGACTTAGGACAACCGATACGACGC  Not fulfilled
45  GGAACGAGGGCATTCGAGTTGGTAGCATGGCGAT      Fulfilled
46  TCATATAGGTAAACAGGTTAAAGTCCGTAAGTTA      Fulfilled
47  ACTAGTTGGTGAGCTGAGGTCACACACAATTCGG      Fulfilled
48  TCTAGTTGGTCACGGAGGTCACACACGACGGGTA      Fulfilled
49  CCGAGTAGATTATGGGGCATTCAGGCAACGGTGA  Not fulfilled
50  CTACCAAGGTGAACAAGGTCGATGATTACTATTC  Not fulfilled
